The measurements presented in this section are drawn from paper PMC9721025.

- TEST_SUMMARY: Pharmacokinetics in beagles, multiple-dose regimen (once per day for 7 days) of TRQI or TRQC, plasma LC-MS/MS
- Format: in vivo
- CONDITION: male, beagle, dog, iv, 0.5 mL/kg, TRQI 0.5 mL/kg for 7 days, beagle No. 3, read-out: AUC0–24 h
VALUE_TYPE: AUC(0-t) (ng·h/mL)
Your answer should be a plain number; it is taken to be in ng·h/mL.

COMPOUND | VALUE_TYPE | UNIT_OF_MEASUREMENT | RESULT
O=C(/C=C/c1ccc(O)c(O)c1)O[C@@H]1C[C@](O)(C(=O)O)C[C@@H](O)[C@H]1O [Chlorogenic acid, chlorogenic acid] | AUC(0-t) | ng·h/mL | 8.21

Per the record, C[C@H](CCC(=O)O)[C@H]1CC[C@H]2[C@@H]3[C@@H](O)C[C@@H]4C[C@H](O)CC[C@]4(C)[C@H]3CC[C@]12C [Ursodeoxycholic acid, ursodeoxycholic acid] has AUC(0-t) of 14500

Reported AUC(0-t) for C[C@H](CCC(=O)O)[C@H]1CC[C@H]2[C@@H]3[C@H](O)C[C@@H]4C[C@H](O)CC[C@]4(C)[C@H]3CC[C@]12C [Chenodeoxycholic acid, chenodeoxycholic acid] was 3240

Per the record, O=C(O)[C@H]1O[C@@H](Oc2cc3oc(-c4ccccc4)cc(=O)c3c(O)c2O)[C@H](O)[C@@H](O)[C@@H]1O [Baicalin, baicalin] has AUC(0-t) of 36.8

###

- TEST_SUMMARY: Pharmacokinetics in beagles, multiple-dose regimen (once per day for 7 days) of TRQI or TRQC, plasma LC-MS/MS
- Type: in vivo
- CONDITION: both sexes, beagle, dog, iv, TRQI 0.5 mL/kg once per day for 7 days, mean
VALUE_TYPE: half-life at 7 days (min)
Value expressed in min; do not type the unit.

Worked set:
STRUCTURE_SMILES | RESULT
C[C@H](CCC(=O)O)[C@H]1CC[C@H]2[C@@H]3[C@@H](O)C[C@@H]4C[C@H](O)CC[C@]4(C)[C@H]3CC[C@]12C | 410
O=C(O)[C@H]1O[C@@H](Oc2cc3oc(-c4ccccc4)cc(=O)c3c(O)c2O)[C@H](O)[C@@H](O)[C@@H]1O | 332

Notebook: C[C@H](CCC(=O)O)[C@H]1CC[C@H]2[C@@H]3[C@H](O)C[C@@H]4C[C@H](O)CC[C@]4(C)[C@H]3CC[C@]12C , half-life at 7 days read as 375

The recorded half-life at 7 days for O=C(/C=C/c1ccc(O)c(O)c1)O[C@@H]1C[C@](O)(C(=O)O)C[C@@H](O)[C@H]1O is 52.8

###

AUC(0-inf) reference
- TEST_SUMMARY: Pharmacokinetics in beagles, multiple-dose regimen (once per day for 7 days) of TRQI or TRQC, plasma LC-MS/MS
- Format: in vivo
- CONDITION: both sexes, beagle, dog, iv, 0.5 mL/kg, TRQI 0.5 mL/kg for 7 days, Mean

MOLECULE | AUC(0-inf)
C[C@H](CCC(=O)O)[C@H]1CC[C@H]2[C@@H]3[C@@H](O)C[C@@H]4C[C@H](O)CC[C@]4(C)[C@H]3CC[C@]12C [Ursodeoxycholic acid, ursodeoxycholic acid] | 19100 ng·h/mL
C[C@H](CCC(=O)O)[C@H]1CC[C@H]2[C@@H]3[C@H](O)C[C@@H]4C[C@H](O)CC[C@]4(C)[C@H]3CC[C@]12C [Chenodeoxycholic acid, chenodeoxycholic acid] | 5030 ng·h/mL
O=C(O)[C@H]1O[C@@H](Oc2cc3oc(-c4ccccc4)cc(=O)c3c(O)c2O)[C@H](O)[C@@H](O)[C@@H]1O [Baicalin, baicalin] | 548 ng·h/mL

Now look at this one.
Memo: O=C(/C=C/c1ccc(O)c(O)c1)O[C@@H]1C[C@](O)(C(=O)O)C[C@@H](O)[C@H]1O [Chlorogenic acid, chlorogenic acid] , reported AUC(0-inf): 15.9 ng·h/mL

###

- TEST_SUMMARY: Pharmacokinetics in beagles, multiple-dose regimen (once per day for 7 days) of TRQI or TRQC, plasma LC-MS/MS
- Format: in vivo
- CONDITION: female, beagle, dog, iv, 0.5 mL/kg, TRQI 0.5 mL/kg for 7 days, beagle No. 4, read-out: AUC0–24 h
Recorded AUC(0-t) by entry
Answer format: numeric, ng·h/mL implied, no suffix.

# annotated cases, reported AUC(0-t) shown
STRUCTURE_SMILES | AUC(0-t) (ng·h/mL)
C[C@H](CCC(=O)O)[C@H]1CC[C@H]2[C@@H]3[C@@H](O)C[C@@H]4C[C@H](O)CC[C@]4(C)[C@H]3CC[C@]12C | 4740
O=C(O)[C@H]1O[C@@H](Oc2cc3oc(-c4ccccc4)cc(=O)c3c(O)c2O)[C@H](O)[C@@H](O)[C@@H]1O | 527
C[C@H](CCC(=O)O)[C@H]1CC[C@H]2[C@@H]3[C@H](O)C[C@@H]4C[C@H](O)CC[C@]4(C)[C@H]3CC[C@]12C | 669

We next turn to a different compound, shown below.
Entry O=C(/C=C/c1ccc(O)c(O)c1)O[C@@H]1C[C@](O)(C(=O)O)C[C@@H](O)[C@H]1O ; AUC(0-t) = 19.1

###

- TEST_SUMMARY: Pharmacokinetics in beagles, single-dose regimen of TRQI (i.v.) or TRQC (oral), plasma LC-MS/MS
- Assay type: in vivo, beagle
- CONDITION: female, beagle, dog, plasma, po, 0.09 g/kg, single TRQCs 0.09 g/kg; beagle No 4; read-out: AUC0–24 h
VALUE_TYPE: AUC(0-t)

Use these answered entries as a reference point.
STRUCTURE_SMILES | VALUE_TYPE | RESULT
O=C(/C=C/c1ccc(O)c(O)c1)O[C@@H]1C[C@](O)(C(=O)O)C[C@@H](O)[C@H]1O | AUC(0-t) | 13.9 ng·h/mL
C[C@H](CCC(=O)O)[C@H]1CC[C@H]2[C@@H]3[C@@H](O)C[C@@H]4C[C@H](O)CC[C@]4(C)[C@H]3CC[C@]12C | AUC(0-t) | 11300 ng·h/mL
O=C(O)[C@H]1O[C@@H](Oc2cc3oc(-c4ccccc4)cc(=O)c3c(O)c2O)[C@H](O)[C@@H](O)[C@@H]1O | AUC(0-t) | 15.6 ng·h/mL

Switching to the query record.
# AUC(0-t) of C[C@H](CCC(=O)O)[C@H]1CC[C@H]2[C@@H]3[C@H](O)C[C@@H]4C[C@H](O)CC[C@]4(C)[C@H]3CC[C@]12C = 1330 ng·h/mL

###

- TEST_SUMMARY: Stability of analytes in dog plasma (QC samples)
- Format: in vitro ADME
- CONDITION: n = 3, middle QC: nominal 20 ng/mL baicalin, 100 ursodeoxycholic acid, 10 chenodeoxycholic acid and chlorogenic acid
VALUE_TYPE: Freeze-thaw stability (3 cycles) Mean ± S.D. concentration
# answer = value followed by unit

Recorded results for 2 compounds are shown here.
STRUCTURE_SMILES | RESULT
O=C(O)[C@H]1O[C@@H](Oc2cc3oc(-c4ccccc4)cc(=O)c3c(O)c2O)[C@H](O)[C@@H](O)[C@@H]1O | 17.88 ± 0.92 ng/mL
C[C@H](CCC(=O)O)[C@H]1CC[C@H]2[C@@H]3[C@@H](O)C[C@@H]4C[C@H](O)CC[C@]4(C)[C@H]3CC[C@]12C | 87.08 ± 1.95 ng/mL

Record O=C(/C=C/c1ccc(O)c(O)c1)O[C@@H]1C[C@](O)(C(=O)O)C[C@@H](O)[C@H]1O , field Freeze-thaw stability (3 cycles) Mean ± S.D. concentration: 10.03 ± 0.84 ng/mL

The measured Freeze-thaw stability (3 cycles) Mean ± S.D. concentration associated with C[C@H](CCC(=O)O)[C@H]1CC[C@H]2[C@@H]3[C@H](O)C[C@@H]4C[C@H](O)CC[C@]4(C)[C@H]3CC[C@]12C reads 9.37 ± 0.95 ng/mL

###

AUC(0-t) values, listed per item
- TEST_SUMMARY: Pharmacokinetics in beagles, single-dose regimen of TRQI (i.v.) or TRQC (oral), plasma LC-MS/MS
- Format: in vivo, beagle
- CONDITION: female, beagle, dog, plasma, po, 0.09 g/kg, single TRQCs 0.09 g/kg; beagle No 6; read-out: AUC0–24 h
- Protocol: 100 μL plasma sample was drawn and transferred to 1.5 mL centrifuge tube prior to 300 μL protein precipitant (3:1 [v/v] methanol/acetonitrile, containing 0.1% formic acid and 100 ng/mL IS) was added, and then the sample was vortex-mixed for 3 min. The mixture was centrifuged at 20,000 ×g for 10 min, and 100 μL supernatant was transferred to the injection vial and analyzed directly by LC–MS/MS. […]
Number plus unit, in that order.

STRUCTURE_SMILES | RESULT
C[C@H](CCC(=O)O)[C@H]1CC[C@H]2[C@@H]3[C@H](O)C[C@@H]4C[C@H](O)CC[C@]4(C)[C@H]3CC[C@]12C | 1080 ng·h/mL
O=C(O)[C@H]1O[C@@H](Oc2cc3oc(-c4ccccc4)cc(=O)c3c(O)c2O)[C@H](O)[C@@H](O)[C@@H]1O | 3.38 ng·h/mL

Read the next record carefully.
Record summary for C[C@H](CCC(=O)O)[C@H]1CC[C@H]2[C@@H]3[C@@H](O)C[C@@H]4C[C@H](O)CC[C@]4(C)[C@H]3CC[C@]12C : reported AUC(0-t) = 3700 ng·h/mL
